- Tested on: GFP-SOD1 mutant aggregation, cell imaging
- Experiment description: inhibitors of mutant SOD1 aggregation, cell-based (AID 1613)
Quantity measured: EC50 (µM)
Give the value, in units of µM, as a plain number.

[[record]]
compound = "CC(=O)O[C@H]1C[C@H](O[C@H]2[C@@H](O)C[C@H](O[C@H]3[C@@H](O)C[C@H](O[C@H]4CC[C@@]5(C)C(CCC6C5C[C@@H](O)[C@]5(C)[C@@H](C7=CC(=O)OC7)CC[C@]65O)C4)O[C@@H]3C)O[C@@H]2C)O[C@H](C)[C@H]1O[C@@H]1O[C@H](CO)[C@@H](O)[C@H](O)[C@H]1O (some centres undefined)"
test_result = 5

[[record]]
compound = "CC[C@H]1CN2CCc3cc(OC)c(OC)cc3C2C[C@@H]1CC1NCCc2cc(OC)c(OC)cc21 (some centres undefined)"
test_result = 5

[[record]]
compound = "CO[C@H]1[C@H](O)[C@H](O[C@H]2CC[C@]3(C)C4CC[C@]5(C)C(C6=CC(=O)OC6)CC[C@]5(O)C4CC[C@@H]3C2)O[C@@H](C)[C@@H]1O (some centres undefined)"
test_result = 5

[[record]]
compound = "CCN(CC)CCNc1ccc(CO)c2sc3ccccc3c(=O)c12"
test_result = 20

[[record]]
compound = "CC(=O)O[C@H]1C(=O)[C@@]2(C)C([C@H](OC(=O)c3ccccc3)[C@]3(O)C[C@H](OC(=O)[C@H](O)[C@@H](NC(=O)c4ccccc4)c4ccccc4)C(C)=C1C3(C)C)[C@]1(OC(C)=O)CO[C@@H]1C[C@@H]2O (some centres undefined)"
test_result = 5


Using the record for C[C@H]1O[C@@H](O[C@H]2[C@@H](O)C[C@H](O[C@H]3[C@@H](O)C[C@H](O[C@H]4CC[C@]5(C)C6C[C@@H](O)[C@]7(C)[C@@H](C8=CC(=O)OC8)CC[C@]7(O)C6CC[C@@H]5C4)O[C@@H]3C)O[C@@H]2C)C[C@H](O)[C@@H]1O (some centres undefined) , report its EC50.
20

// next record CO[C@H]1[C@H](O)[C@@H](O[C@H]2CC[C@]3(C=O)C4CC[C@]5(C)[C@@H](C6=CC(=O)OC6)CC[C@]5(O)C4CC[C@@H]3C2)O[C@@H](C)[C@@H]1O (some centres undefined)
5

// next record COc1ccc(C[C@H]2NC[C@H](O)[C@H]2OC(C)=O)cc1
2

// next record C[C@H]1O[C@@H](O[C@H]2[C@@H](O)C[C@H](O[C@H]3[C@@H](O)C[C@H](O[C@H]4CC[C@]5(C)C6CC[C@]7(C)[C@@H](C8=CC(=O)OC8)CC[C@]7(O)C6CC[C@@H]5C4)O[C@@H]3C)O[C@@H]2C)C[C@H](O)[C@@H]1O (some centres undefined)
20

// next record C[C@]12CCC3C(CC[C@]4(O)C[C@@H](O)CC[C@]34C=O)[C@@]1(O)CCC2C1=CC(=O)OC1 (some centres undefined)
5

// next record C[n+]1c2cc(N)ccc2cc2ccc(N)cc21
10

// next record O=C1c2c(O)ccc(O)c2C(=O)c2c(NCCNCCO)ccc(NCCNCCO)c21
5

// next record CC[C@@]1(O)C(=O)OCc2c1cc1n(c2=O)Cc2cc3ccccc3nc2-1
15

// next record C[C@@H]1C[C@@H]([C@H](O)CC2CC(=O)NC(=O)C2)C(=O)[C@@H](C)C1
2

Value source: PubChem BioAssay AID1613
